Source of measurements: patent US12435058B2

Provide the reported IC50 of each item.
EXPERIMENTAL_TARGET: Recombinant human KIF18A (1-467 His-tagged) protein (Homo sapiens, UniProt Q8NI77)
Construct: Recombinant human KIF18A (1-467 His-tagged) protein; His
Sequence (Q8NI77 1-467): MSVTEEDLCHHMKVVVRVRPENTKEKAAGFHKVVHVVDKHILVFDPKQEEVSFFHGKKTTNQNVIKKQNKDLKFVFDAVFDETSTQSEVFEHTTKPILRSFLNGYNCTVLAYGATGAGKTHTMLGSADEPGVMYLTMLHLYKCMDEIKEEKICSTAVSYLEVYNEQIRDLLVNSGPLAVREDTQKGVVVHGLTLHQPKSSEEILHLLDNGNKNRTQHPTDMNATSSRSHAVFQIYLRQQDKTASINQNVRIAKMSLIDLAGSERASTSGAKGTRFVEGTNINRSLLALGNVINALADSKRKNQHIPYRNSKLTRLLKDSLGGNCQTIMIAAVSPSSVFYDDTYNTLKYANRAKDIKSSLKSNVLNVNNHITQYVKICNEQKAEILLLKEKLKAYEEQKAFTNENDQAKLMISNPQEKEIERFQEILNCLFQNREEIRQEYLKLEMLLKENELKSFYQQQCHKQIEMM
Sequence (P02550 whole entry partner): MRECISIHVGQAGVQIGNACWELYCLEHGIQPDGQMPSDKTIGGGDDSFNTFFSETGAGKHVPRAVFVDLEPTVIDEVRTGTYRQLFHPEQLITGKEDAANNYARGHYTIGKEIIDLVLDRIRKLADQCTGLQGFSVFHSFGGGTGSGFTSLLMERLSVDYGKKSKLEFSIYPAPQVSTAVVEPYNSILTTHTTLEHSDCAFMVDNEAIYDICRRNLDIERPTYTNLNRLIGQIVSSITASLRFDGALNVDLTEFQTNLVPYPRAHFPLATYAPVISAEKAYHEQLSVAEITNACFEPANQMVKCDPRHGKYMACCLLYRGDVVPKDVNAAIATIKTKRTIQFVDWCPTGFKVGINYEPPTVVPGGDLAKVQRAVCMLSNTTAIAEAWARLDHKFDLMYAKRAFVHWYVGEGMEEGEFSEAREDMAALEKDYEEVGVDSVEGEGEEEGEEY
Sequence (P02554 whole entry partner): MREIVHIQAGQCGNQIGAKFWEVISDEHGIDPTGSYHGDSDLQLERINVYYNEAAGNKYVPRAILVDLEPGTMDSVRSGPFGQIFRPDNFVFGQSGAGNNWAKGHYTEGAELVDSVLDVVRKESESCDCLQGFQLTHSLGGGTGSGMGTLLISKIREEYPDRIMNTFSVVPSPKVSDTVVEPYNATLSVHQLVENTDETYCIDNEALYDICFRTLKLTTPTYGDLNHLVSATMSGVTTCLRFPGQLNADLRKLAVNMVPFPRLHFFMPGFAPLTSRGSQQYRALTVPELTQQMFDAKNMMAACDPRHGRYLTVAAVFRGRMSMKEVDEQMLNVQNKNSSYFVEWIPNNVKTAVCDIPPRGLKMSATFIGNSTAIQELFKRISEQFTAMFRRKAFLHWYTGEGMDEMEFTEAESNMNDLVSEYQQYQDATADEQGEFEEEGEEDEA
ASSAY_INFO: KIF18A Enzyme Assay (microtubule-stimulated ATPase activity, ADP-Glo)
CONDITION_NOTES: KIF18A protein 30 nM, ATP 75 μM (at Km), 30 μg/mL pig microtubules, ADP-Glo luminescence
Field: numeric (µM). Do not append units.

Problem: Endpoint output: IC50 of CC(C)(C)NS(=O)(=O)c1cccc(NC(=O)c2ncc([C@@](C)(O)C(F)(F)F)nc2N2CCC3(CC2)CC3)c1 (single isomer, unassigned) . Value?
Solution: 0.174

Problem: Endpoint output: IC50 of CC(C)(C)NS(=O)(=O)c1cccc(NC(=O)c2ncc(NC(C)(C)CO)nc2N2CC3(CCCCC3)C2)c1 . Value?
Solution: 0.41

Problem: Endpoint output: IC50 of CC(C)(C)NS(=O)(=O)c1cccc(NC(=O)c2ncc([C@](C)(O)C(F)(F)F)nc2N2CCC3(CC2)CC3)c1 (single isomer, unassigned) . Value?
Solution: 0.356

Problem: Endpoint output: IC50 of CC(C)(C)NS(=O)(=O)c1cccc(NC(=O)c2ncc(NC(C)(CO)CO)nc2N2CCC3(CC2)CC3)c1 . Value?
Solution: 0.103

Problem: Endpoint output: IC50 of CC(C)(C)NS(=O)(=O)c1cccc(NC(=O)c2ncc(NC(C)(C)CO)nc2N2CCC3(CC2)CC(F)(F)C3)c1 . Value?
Solution: 0.215

Problem: Endpoint output: IC50 of CC(C)(C)NS(=O)(=O)c1cccc(NC(=O)c2ncc(NC(C)(C)CO)nc2N2CCC3(CCC3)CC2)c1 . Value?
Solution: 0.077

Problem: Endpoint output: IC50 of CC(C)(C)NS(=O)(=O)c1cc(F)cc(NC(=O)c2ncc(NC(C)(C)CO)nc2N2CCC3(CC2)CC3)c1 . Value?
Solution: 0.172

###

EXPERIMENTAL_TARGET: Recombinant human KIF18A (1-467 His-tagged) protein (Homo sapiens)
Construct: Recombinant human KIF18A (1-467 His-tagged) protein; His; made in house
ASSAY_INFO: KIF18A Enzyme Assay (microtubule-stimulated ATPase activity, ADP-Glo)
Type: biochemical
CONDITION_NOTES: KIF18A protein 30 nM, ATP 75 μM (at Km), 30 μg/mL pig microtubules, ADP-Glo luminescence
Source text: For compounds in Table A, the following assay conditions were employed: KIF18A Enzyme Assay: Microtubule-stimulated ATPase activity assay is used to measure KIF18A enzyme activity after treatment with compound. Compounds were 2-fold serially diluted in DMSO (Sigma Inc) over 22-point concentration range. […] Read luminescence using EnVision microplate reader with ultra-luminescence module (Perkin Elmer Inc). […]
Kindly apply the following: true if IC50 is less than 500 nM, false in every other case.

Problem: Is IC50 strictly under 500 nM for the entry CC(C)(C)NS(=O)(=O)c1cccc(NC(=O)c2ncc(NC(C)(C)CO)nc2N2CCC3(CCOCC3)CC2)c1 [Example 100-14] ?
Solution: false

Problem: Is IC50 strictly under 500 nM for the entry CC(C)(C)NS(=O)(=O)c1cccc(NC(=O)c2ncc(NC(C)(C)CO)nc2-c2ccc(C(F)(F)F)cc2)c1 [Example 104-2] ?
Solution: true

Problem: Is IC50 strictly under 500 nM for the entry CC(C)(C)NS(=O)(=O)c1cccc(NC(=O)c2ncc(NC(C)(C)CO)nc2N2CCC(C(C)(C)C)CC2)c1 [Example 100-7] ?
Solution: false

Problem: Is IC50 strictly under 500 nM for the entry CC1CCN(c2nc(NC(C)(C)CO)cnc2C(=O)Nc2cccc(S(=O)(=O)NC(C)(C)C)c2)CC1 [Example 100-1] ?
Solution: true

Problem: Is IC50 strictly under 500 nM for the entry CC(C)(C)NS(=O)(=O)c1cccc(NC(=O)c2ncc(NC(C)(C)CO)nc2N2CCC(C3CC3)CC2)c1 [Example 100-10] ?
Solution: true

Problem: Is IC50 strictly under 500 nM for the entry CC(C)(CO)Nc1cnc(C(=O)Nc2cccc(S(=O)(=O)C(C)(C)C)c2)c(N2CCC3(CC2)CC3)n1 [Example 101-2] ?
Solution: true

Problem: Is IC50 strictly under 500 nM for the entry CC(C)(C)NS(=O)(=O)c1cccc(NC(=O)c2ncc(NC(C)(C)CO)nc2N2CCC3(CC2)CC3)c1F [Example 101-5] ?
Solution: false

###

EXPERIMENTAL_TARGET: Recombinant human KIF18A (1-467 His-tagged) protein (Homo sapiens, UniProt Q8NI77)
Construct: Recombinant human KIF18A (1-467 His-tagged) protein; His
ASSAY_INFO: KIF18A Enzyme Assay (microtubule-stimulated ATPase activity, ADP-Glo)
CONDITION_NOTES: KIF18A protein 30 nM, ATP 75 μM (at Km), 30 μg/mL pig microtubules, ADP-Glo luminescence
REPORTED_METRIC: pIC50
// field semantics: pIC50 = negative decimal log of concentration (mol/L)

Problem: Endpoint output: pIC50 of CC(C)(C)NS(=O)(=O)c1cccc(NC(=O)c2ncc(NC(C)(C)CO)nc2N2CCC(C(F)(F)F)CC2)c1 [Example 100-3] . Value?
Solution: 6.34

Problem: Endpoint output: pIC50 of CCC1CCN(c2nc(NC(C)(C)CO)cnc2C(=O)Nc2cccc(S(=O)(=O)NC(C)(C)C)c2)CC1 [Example 100-4] . Value?
Solution: 6.88

Problem: Endpoint output: pIC50 of CC(C)(C)NS(=O)(=O)c1cccc(NC(=O)c2ncc(NC3(CO)CC3)nc2N2CCC3(CC2)CC3)c1 [Example 103-3] . Value?
Solution: 6.86

Problem: Endpoint output: pIC50 of CC(C)(CO)Nc1cnc(C(=O)Nc2cccc(S(=O)(=O)[C@H]3CCC(F)(F)C3)c2)c(N2CCC3(CC2)CC3)n1 (single isomer, unassigned) [Example 102-1] . Value?
Solution: 7.17

Problem: Endpoint output: pIC50 of CC(C)(C)NS(=O)(=O)c1cccc(NC(=O)c2ncc(NC(C)(C)CO)nc2-c2ccc(Cl)cc2)c1 [Example 104] . Value?
Solution: 6.87

Problem: Endpoint output: pIC50 of CC(C)(CO)Nc1cnc(C(=O)Nc2cccc(S(=O)(=O)C(C)(C)C(F)(F)F)c2)c(N2CCC3(CC2)CC3)n1 [Example 101-1] . Value?
Solution: 6.97

Problem: Endpoint output: pIC50 of CCc1ccc(-c2nc(NC(C)(C)CO)cnc2C(=O)Nc2cccc(S(=O)(=O)NC(C)(C)C)c2)cc1 [Example 104-3] . Value?
Solution: 6.84

###

EXPERIMENTAL_TARGET: Recombinant human KIF18A (1-467 His-tagged) protein (Homo sapiens)
Construct: Recombinant human KIF18A (1-467 His-tagged) protein; His
ASSAY_INFO: KIF18A Enzyme Assay (microtubule-stimulated ATPase activity, ADP-Glo)
CONDITION_NOTES: KIF18A protein 30 nM, ATP 75 μM (at Km), 30 μg/mL pig microtubules, ADP-Glo luminescence
Provide the reported pIC50 of each item.
// field semantics: pIC50 = negative decimal log of concentration (mol/L)

Problem: // lookup pIC50 | system=Recombinant human KIF18A (1-467 His-tagged) protein (Homo sapiens) | key= O=C(Nc1cccc(S(=O)(=O)C2CCCC2)c1)c1ncc(NC2(CO)CC2)nc1N1CCC2(CC1)CC2
Solution: 6.84

Problem: // lookup pIC50 | system=Recombinant human KIF18A (1-467 His-tagged) protein (Homo sapiens) | key= CC(C)(CO)Nc1cnc(C(=O)Nc2cccc(S(=O)(=O)N3CCCCC3)c2)c(N2CCC3(CC2)CC3)n1
Solution: 6.87

Problem: // lookup pIC50 | system=Recombinant human KIF18A (1-467 His-tagged) protein (Homo sapiens) | key= CC(C)(CO)Nc1cnc(C(=O)Nc2cccc(N3CCS(=O)(=O)CC3)c2)c(N2CCC3(CC2)CC3)n1
Solution: 6.26

Problem: // lookup pIC50 | system=Recombinant human KIF18A (1-467 His-tagged) protein (Homo sapiens) | key= CC(C)(C)NS(=O)(=O)c1cccc(NC(=O)c2ncc(NC(C)(C)CO)nc2-c2ccc(F)cc2)c1
Solution: 6.38

Problem: // lookup pIC50 | system=Recombinant human KIF18A (1-467 His-tagged) protein (Homo sapiens) | key= CC(C)(C)NS(=O)(=O)c1cccc(NC(=O)c2ncc(NC(C)(C)CO)nc2N2CCC3(CCCC3)CC2)c1
Solution: 6.89

Problem: // lookup pIC50 | system=Recombinant human KIF18A (1-467 His-tagged) protein (Homo sapiens) | key= CC(C)(C)NS(=O)(=O)c1cccc(NC(=O)c2ncc(NC(C)(C)CO)nc2N2CC3(CCC3)C2)c1
Solution: 6.03

Problem: // lookup pIC50 | system=Recombinant human KIF18A (1-467 His-tagged) protein (Homo sapiens) | key= CC(C)(CO)Nc1cnc(C(=O)Nc2cccc(S(=O)(=O)C3CCCC3)c2)c(N2CCC3(CC2)CC3)n1
Solution: 7.11

Problem: // lookup pIC50 | system=Recombinant human KIF18A (1-467 His-tagged) protein (Homo sapiens) | key= CC(C)c1ccc(-c2nc(NC(C)(C)CO)cnc2C(=O)Nc2cccc(S(=O)(=O)NC(C)(C)C)c2)cc1
Solution: 6.85

Problem: // lookup pIC50 | system=Recombinant human KIF18A (1-467 His-tagged) protein (Homo sapiens) | key= CC(C)(CO)Nc1cnc(C(=O)Nc2cccc(S(=O)(=O)[C@@H]3CCC(F)(F)C3)c2)c(N2CCC3(CC2)CC3)n1 (single isomer, unassigned)
Solution: 6.95

Problem: // lookup pIC50 | system=Recombinant human KIF18A (1-467 His-tagged) protein (Homo sapiens) | key= CC1(C)CCN(c2nc(NC(C)(C)CO)cnc2C(=O)Nc2cccc(S(=O)(=O)NC(C)(C)C)c2)CC1
Solution: 6.72

Problem: // lookup pIC50 | system=Recombinant human KIF18A (1-467 His-tagged) protein (Homo sapiens) | key= COCC1CCN(c2nc(NC(C)(C)CO)cnc2C(=O)Nc2cccc(S(=O)(=O)NC(C)(C)C)c2)CC1
Solution: 5.86

Problem: // lookup pIC50 | system=Recombinant human KIF18A (1-467 His-tagged) protein (Homo sapiens) | key= CC(C)(C)NS(=O)(=O)c1cccc(NC(=O)c2ncc(NC(C)(C)CO)nc2N2CCC(F)(F)CC2)c1
Solution: 6.47

Problem: // lookup pIC50 | system=Recombinant human KIF18A (1-467 His-tagged) protein (Homo sapiens) | key= CC(C)(O)CNc1cnc(C(=O)Nc2cccc(S(=O)(=O)N3CCCCC3)c2)c(N2CCC3(CC2)CC3)n1
Solution: 6.39

Problem: // lookup pIC50 | system=Recombinant human KIF18A (1-467 His-tagged) protein (Homo sapiens) | key= CC(C)(CO)Nc1cnc(C(=O)Nc2cccc(N3CCOCC3)c2)c(N2CCC3(CC2)CC3)n1
Solution: 6.11
